# EXPERIMENTAL_TARGET: acyl-CoA: cholesterol acyltransferase (ACAT) (Rattus norvegicus, UniProt Q7TQM4)
# Construct: tissue preparation containing rat liver microsomes; from tissue; host or cells: rat liver microsomes
# Sequence (Q7TQM4 1-524): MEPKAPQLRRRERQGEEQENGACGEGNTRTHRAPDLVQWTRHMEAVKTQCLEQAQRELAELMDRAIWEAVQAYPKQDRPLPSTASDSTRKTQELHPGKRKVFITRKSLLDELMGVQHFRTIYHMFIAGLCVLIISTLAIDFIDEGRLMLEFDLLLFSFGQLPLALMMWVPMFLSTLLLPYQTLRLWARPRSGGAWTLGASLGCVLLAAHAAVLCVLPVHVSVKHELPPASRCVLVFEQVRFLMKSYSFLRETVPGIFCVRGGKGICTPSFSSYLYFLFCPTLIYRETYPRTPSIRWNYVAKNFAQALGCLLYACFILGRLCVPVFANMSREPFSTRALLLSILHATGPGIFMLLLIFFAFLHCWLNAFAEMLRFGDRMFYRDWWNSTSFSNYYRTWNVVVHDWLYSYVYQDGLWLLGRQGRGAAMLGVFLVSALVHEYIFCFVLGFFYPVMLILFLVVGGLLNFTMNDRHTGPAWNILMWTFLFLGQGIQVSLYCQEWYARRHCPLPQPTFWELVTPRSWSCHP
# ASSAY_PROCEDURE: in vitro ACAT inhibition test in rat liver microsomes (LAI)
# Format: biochemical
# CONDITION_INFO: rat liver microsomes; formation of radiolabeled cholesterol oleate from radiolabeled oleic acid; read-out: LAI IC50
pIC50: −log10 of the molar value.
So basically: pIC50 at 6 or higher? That is met. Lower than 6? That is not met.

Does the reported pIC50 for `CC(C)c1cc(C(C)C)c(OS(=O)(=O)CC(=O)N(Cc2ccccc2)Cc2ccccc2)c(C(C)C)c1` fall at or above the 6 mark? not met

Does the reported pIC50 for `CSc1ccc(CN(C(=O)CS(=O)(=O)Oc2c(C(C)C)cc(C(C)C)cc2C(C)C)C(C)C)cc1` fall at or above the 6 mark? not met

Does the reported pIC50 for `CCCCCCCCCCCCNC(=O)CS(=O)(=O)Oc1c(C(C)C)cccc1C(C)C` fall at or above the 6 mark? not met

Does the reported pIC50 for `CC(C)c1cc(C(C)C)c(OS(=O)(=O)CC(=O)Nc2c(C(C)C)cccc2C(C)C)c(C(C)C)c1` fall at or above the 6 mark? met

Does the reported pIC50 for `CC(C)c1cccc(C(C)C)c1NC(=O)CS(=O)(=O)Oc1c(C(C)C)cccc1C(C)C` fall at or above the 6 mark? met

Does the reported pIC50 for `CC(C)c1cccc(C(C)C)c1OS(=O)(=O)CC(=O)NC(c1ccccc1)c1ccccc1` fall at or above the 6 mark? not met

Does the reported pIC50 for `CC(C)c1cc(C(C)C)c(NC(=O)CS(=O)(=O)Oc2c(C(C)C)cccc2C(C)C)c(C(C)C)c1` fall at or above the 6 mark? not met

Provenance of the data: patent US5510379A
